I'd be grateful if you could share measured pIC50 for these entries.
Target: Nonstructural protein 3 (Zika virus, UniProt A0A024AXB9)
Sequence (A0A024AXB9 whole entry): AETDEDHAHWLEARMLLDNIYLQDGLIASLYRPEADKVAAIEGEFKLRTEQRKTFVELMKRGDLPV
Test: Functional biochemical assay to identify treatments for viral infectious disease that targets Zika NS2B-NS3 protease. Utilizing a direct enzyme activity measurement method, reading the fluorescence intensity is used to characterize the relative potency of inhibitors as IC50.
Set-up: species or system PRVABC59
pIC50: −log10 of the molar value.

Prompt: Field: pIC50 (Nonstructural protein 3 (Zika virus, UniProt A0A024AXB9)). Entry: "Cn1cnc2c1CN(Cc1ccc3c(c1)CCNCC3)CC2"
Response: < 4.00

Prompt: Write down the reported pIC50 of "c1ccc2sc(C3CCN(Cc4n[nH]c5c4CCCC5)CC3)nc2c1" , test system: Nonstructural protein 3 (Zika virus, UniProt A0A024AXB9).
Response: < 4.00

Prompt: Observed pIC50 on Nonstructural protein 3 (Zika virus, UniProt A0A024AXB9) for "O=C1Cc2c(cccc2C(=O)NC2CCC3(CC2)COC3)N1" , please.
Response: < 4.60

Prompt: Which pIC50 is reported with Nonstructural protein 3 (Zika virus, UniProt A0A024AXB9) for this entry: "O=C(Nc1ccc2c(c1)CNC2)c1cc(Cl)cc(N2CCCC2)c1" ?
Response: 6.94

Prompt: Hello, I am looking for reported pIC50 with Nonstructural protein 3 (Zika virus, UniProt A0A024AXB9) for "C[C@@H](N)c1cccc(NC(=O)[C@@H](NC(=O)OCc2ccccc2)c2ccc(OCc3ccccc3)cc2)c1" . Could you help?
Response: 4.47

Prompt: Under Nonstructural protein 3 (Zika virus, UniProt A0A024AXB9): pIC50 value of "N#C[C@]1(Nc2cccc(-c3nn[nH]n3)c2)C(=O)Nc2ccc(Cl)cc21" ?
Response: < 4.00

Prompt: Recall the recorded pIC50 for "CCCc1sc(C(=O)Nc2cccc(-c3nnn[nH]3)c2)cc1CC" with Nonstructural protein 3 (Zika virus, UniProt A0A024AXB9) and state it.
Response: < 4.00

Prompt: API: value(readout=pIC50, system=Nonstructural protein 3 (Zika virus, UniProt A0A024AXB9)) for record "COc1ncc(Cl)cc1C(=O)Nc1ccc2c(c1)CNC2"
Response: 5.59

Prompt: What is its pIC50 for Nonstructural protein 3 (Zika virus, UniProt A0A024AXB9)? Entry: "CCSc1ccc(Cl)cc1C(=O)Nc1ccc2c(c1)CNC2"
Response: 6.15

Prompt: Param readout= pIC50; system= Nonstructural protein 3 (Zika virus, UniProt A0A024AXB9); entry= "NCCCOc1cc(-c2ccc(N)nc2)cc2c1COB2O" ; returns value.
Response: < 4.00

Prompt: Form entry - test system: Nonstructural protein 3 (Zika virus, UniProt A0A024AXB9); read-out: pIC50; compound: "O=C(O)c1cc(Cl)ccc1S(=O)(=O)Nc1ccc(N2CCCCC2)c(F)c1"
Response: < 4.00

----------
Target: Nonstructural protein 3 (Zika virus, UniProt A0A024AXB9)
Test: Functional biochemical assay to identify treatments for viral infectious disease that targets Zika NS2B-NS3 protease. Utilizing a direct enzyme activity measurement method, reading the fluorescence intensity is used to characterize the relative potency of inhibitors as IC50.
Set-up: species or system PRVABC59
pIC50: −log10 of the molar value.
outcome measure: pIC50

Prompt: Name the reported pIC50 value associated with the compound "CCN(CC)C[C@H]1CCCN(C(=O)Nc2ccc3c(c2)CNC3)C1"
Response: < 4.60

Prompt: Look up pIC50 for this compound: "Cn1nc(CNc2cc([C@H]3CCOC3)ccn2)cc1C1CC1"
Response: < 4.60

Prompt: // pIC50 lookup, key: "OCc1ccc(Cl)c(N2CCN(c3ccc4[nH]cnc4c3)CC2)n1"
Response: < 4.00

Prompt: May I ask what pIC50 has been recorded for "O=C(Nc1cc(-c2cccnc2)ccn1)c1cn([C@H]2CCCNC2)nn1" ?
Response: < 4.60

Prompt: Consider the compound shown here: "Cc1c(C(=O)Nc2cccc(C3CCNCC3)c2)cc(C2CC2)n1C" What is its recorded pIC50?
Response: < 4.00

Prompt: What does the record list as pIC50 for "C[C@H]1COCCN1C(=O)c1cc(Cl)ccc1NS(=O)(=O)c1ccc(Oc2ccccc2Cl)cc1" ?
Response: < 4.00

Prompt: Which pIC50 is listed for "CCn1c(=O)c(N2CCC[C@H]2CN2CCCC2)nc2ccccc21" ?
Response: < 4.00

Prompt: Please look up its pIC50: "O=C(N[C@@H](C(=O)N[C@H]1CCCNC1)c1ccc(OCc2ccccc2)cc1)OCc1ccccc1"
Response: < 4.00

Prompt: Reported pIC50, compound "O=C(Nc1ccc2c(c1)CNC2)c1cc(Cl)cc2[nH]c(-c3cn[nH]c3)cc12" : ____
Response: < 4.60

Prompt: Fill in the blank: the reported pIC50 of "NCCCc1ccc(F)c(NC(=O)c2cc(Cl)cc(NC(=O)OCc3ccccc3)c2)c1" is ____.
Response: 5.20

----------
Molecular target: Nonstructural protein 3 (Zika virus, UniProt A0A024AXB9)
Test: Functional biochemical assay to identify treatments for viral infectious disease that targets Zika NS2B-NS3 protease. Utilizing a direct enzyme activity measurement method, reading the fluorescence intensity is used to characterize the relative potency of inhibitors as IC50.
Set-up: species or system PRVABC59
pIC50: −log10 of the molar value.
outcome measure: pIC50

Prompt: Which pIC50 is reported for this compound? "O=C(O)c1cc(Cl)ccc1S(=O)(=O)Nc1ccc(N2CCCCCC2)cc1"
Response: < 4.00

Prompt: Which pIC50 reading was recorded for the compound "NCc1cc(Br)cc([C@H]2C[C@@H]2c2cc(Cl)cc(NC(=O)OCc3ccccc3)c2)c1" ?
Response: 4.94

Prompt: Need pIC50, item "CN(c1ncnc(-c2ccsc2C=O)n1)C1CCNCC1"
Response: 4.01

Prompt: Name the recorded pIC50 for "c1cncc(CN2CC[C@H](NCc3c[nH]c4ccccc34)C2)c1" .
Response: < 4.00

Prompt: Would you kindly share the measured pIC50 for "NC[C@H]1CC[C@@H](NC(=O)c2cc(Cl)cc3[nH]ncc23)CC1" ?
Response: 4.97

Prompt: Name the recorded pIC50 for "COC(=O)c1cc(Br)cc2c(Cc3ccc(-c4nnn[nH]4)cc3)c[nH]c12" .
Response: < 4.00

Prompt: I'd like to know its pIC50. The compound in question is "NC1(c2cccc(NS(=O)(=O)c3ccc(Oc4ccccc4Cl)cc3)c2)CCOCC1"
Response: < 4.00

Prompt: Which pIC50 value is on record for "O=C(O)c1ccc(NC(=O)c2cc(Cl)cc3[nH]ncc23)cc1" ?
Response: < 4.00

Prompt: Which pIC50 value is on record for "Cc1c(C(=O)Nc2cc(C(=O)N3CC(C(N)=O)C3)ccn2)cc(C2CC2)n1C" ?
Response: < 4.60

Prompt: What value of pIC50 has been reported for the following compound? "O=C(Nc1cc(Cl)cc(C(=O)Nc2cc3n(n2)CCNC3)c1)OCc1ccccc1"
Response: < 4.00

Prompt: I have this compound here, "O=Cc1ccc(N2CCC(C(=O)NC[C@H](O)c3ccc(O)c(O)c3)CC2)cc1" , and I need its recorded pIC50.
Response: < 4.90

Prompt: What value of pIC50 has been recorded for this entry: "Cc1c(C(=O)Nc2ccnc(O[C@H]3CCOC3)c2)cc(C2CC2)n1C"
Response: < 4.60

Prompt: Given "c1ccc2c(CN3CCC(c4c[nH]c5cccnc45)CC3)c[nH]c2c1" , state its recorded pIC50.
Response: 4.60

Prompt: Looking for the measured pIC50 of "N#Cc1cccc2[nH]cc(CN3CCC(c4cscn4)CC3)c12" , can you help?
Response: < 4.00

Prompt: // pIC50 lookup, key: "CCOc1cccc(-c2ccc(S(=O)(=O)Nc3cc4c(cc3C(=O)O)CCC4)cc2)c1"
Response: 4.85

Prompt: Suppose we examine the compound "Cc1c(CN)cccc1NS(=O)(=O)c1ccc(Oc2ccccc2Cl)cc1" ; what pIC50 value has been reported?
Response: < 4.00

Prompt: Would you mind telling me what pIC50 value was observed for "O[C@H]1CCCN(Cc2c[nH]c3ccccc23)C1" ?
Response: < 4.00

Prompt: What does the data say about its pIC50? Entry: "CCCNC(=O)[C@H](Nc1cccc(-c2nn[nH]n2)c1)c1cc(Cl)cc(NC(=O)OCc2ccccc2)c1"
Response: 4.31

Prompt: Requested read-out: pIC50. Entry: "CC1(C)CCC([C@@H](NC(=O)OCc2ccccc2)C(=O)Nc2cccc(CN)c2)CC1"
Response: 4.03

Prompt: Fill in the blank: the reported pIC50 of "Cc1cc(C(=O)Nc2cc(-c3cccnc3)ccn2)c(C)n1C" is ____.
Response: < 4.60

Prompt: // lookup pIC50 for "c1cnc2c(C3CCN(Cc4c[nH]c5ncccc45)CC3)c[nH]c2c1"
Response: < 4.00

Prompt: Tell me the measured pIC50 of "Cc1cc(CNC(=O)[C@@H](NC(=O)OCc2ccccc2)c2ccc(OCc3ccccc3)cc2)cc(C)n1" , please.
Response: < 4.00

Prompt: Please give the measured pIC50 for this compound: "Cc1ccc(NC(=O)c2cc(C3CC3)n(C)c2C)cc1-c1cccnc1"
Response: < 4.60

Prompt: For "Cc1cc(C(=O)Nc2cccc(CN)c2)c2c(C)n[nH]c2n1" , what is its reported pIC50?
Response: < 4.00

Prompt: Fill in the blank: the reported pIC50 of "NCc1cccc(NC(=O)[C@@H]2C[C@@H]3CC[C@H]2N3C(=O)OCc2ccccc2)c1" is ____.
Response: < 4.00

Prompt: # lookup: pIC50 of "O=C(O)c1cc(Cl)ccc1S(=O)(=O)NC1CCN(C(=O)c2ccccc2C(F)(F)F)CC1"
Response: < 4.00

Prompt: # pIC50 lookup, item "CO[C@H]1CCCN(C(=O)c2ccnc(NC(=O)c3cc(C4CC4)n(C)c3C)c2)C1"
Response: < 4.60

Prompt: Which pIC50 value belongs to "CC(C)(CO)CN1CC[C@H](c2c[nH]c3ccccc23)C1" ?
Response: < 4.00

Prompt: Item "CC[C@H](Cc1nnn[nH]1)c1ccc(NC(=O)c2cc(Cl)cc(SC)c2)cc1" has what recorded pIC50?
Response: < 4.00

Prompt: Fill in the blank: the reported pIC50 of "CCn1ccnc(N2CC[C@H](C(C)(C)C)C2)c1=O" is ____.
Response: < 4.00

Prompt: Field request: pIC50 | item: "COc1cc(Br)ccc1[C@@H](NC(=O)OCc1ccccc1)C(=O)Nc1cccc(CN)c1"
Response: 4.16

Prompt: Please report the recorded pIC50 for "c1nc(C2CCN(Cc3n[nH]c4c3CCC4)CC2)cs1" .
Response: < 4.00

Prompt: Can you look up the measured pIC50 of "CCn1ccnc(N2CC[C@H](c3ccc(F)cc3)C2)c1=O" for me?
Response: < 4.00

Prompt: Quick one: pIC50 of "CCC1CN(C(=O)Cn2ccnc(N3CC[C@@H](CO)C3)c2=O)C1" ?
Response: < 4.00

Prompt: I have this compound here, "CN(C)C(=O)N1Cc2ccc(NC(=O)c3cc(Cl)cc4[nH]ncc34)cc2C1" , and I need its recorded pIC50.
Response: < 4.60

Prompt: pIC50 lookup needed for "O=C1C[C@H]2[C@H](CCCN2C(=O)Nc2ccc3c(c2)CNC3)N1" , thanks.
Response: < 4.60

Prompt: Look at this compound and give its reported pIC50. "O=C(Nc1ccc2c(c1)CNC2)c1cc(Cl)cc2nn(C3COC3)cc12"
Response: 6.27

Prompt: Name the recorded pIC50 for "NCc1cccc(NC(=O)[C@@H](NC(=O)OCc2ccccc2)c2cccc(F)c2F)c1" .
Response: < 4.00

Prompt: Name the recorded pIC50 for "CCNC(=O)Nc1cc(Cl)cc(C(=O)Nc2ccc3c(c2)CNCCO3)c1" .
Response: 6.13

Prompt: GET /values?readout=pIC50&item= "CCc1cc(C(=O)Nc2cccc(CN)c2)sc1C"
Response: < 4.00

Prompt: Would you mind telling me what pIC50 value was observed for "CCc1ccc(-c2ccc([C@@H](NC(=O)OCc3ccccc3)C(=O)Nc3cccc(CN)c3)cc2)cc1" ?
Response: 5.24

Prompt: Data request, read-out pIC50, for "CCn1ccnc(N2CC[C@H](c3ccncc3)C2)c1=O"
Response: < 4.00

This collection of values is drawn from ChEMBL document CHEMBL5604062.
